- TGT: Torsin-1A-interacting protein 2 (Homo sapiens) (UniProt Q8NFQ8)
- Sequence (Q8NFQ8 whole entry, looked up): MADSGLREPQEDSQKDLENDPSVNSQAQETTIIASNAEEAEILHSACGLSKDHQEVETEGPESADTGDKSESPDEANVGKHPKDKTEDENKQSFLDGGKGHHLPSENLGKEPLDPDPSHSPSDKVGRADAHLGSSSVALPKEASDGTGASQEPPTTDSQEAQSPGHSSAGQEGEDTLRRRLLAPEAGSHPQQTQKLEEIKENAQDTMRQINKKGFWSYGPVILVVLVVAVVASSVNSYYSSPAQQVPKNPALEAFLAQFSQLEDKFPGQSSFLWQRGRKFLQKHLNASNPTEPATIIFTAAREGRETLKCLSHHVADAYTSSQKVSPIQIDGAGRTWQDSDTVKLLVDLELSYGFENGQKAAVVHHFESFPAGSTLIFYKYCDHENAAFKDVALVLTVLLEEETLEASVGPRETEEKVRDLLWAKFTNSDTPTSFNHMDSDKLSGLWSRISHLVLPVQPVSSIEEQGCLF
- MEASUREMENT_NOTES: LULL1 binders on small-molecule microarray, primary screen, cell lysate, human LULL1 lysate, 635/667 nm fluorescence (AID 1092);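 further: probe is lysate of COS7 cells overexpressing human LULL1; score merges per-feature 667 nm fluorescence with signal-to-noise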
- CONDITION_PARAMETERS: hLULL1 lysate binding, 635 nm fluorescence, higher = more signal
Assign true to entries whose composite z-score meets or exceeds 2; assign false to the rest.

{"COMPOUND": "C[N+](C)(C)CCCC[C@@H]1NC(=O)[C@H]2C[C@@H](C(=O)NCCCCCCN)[C@@H](c3ccc(O)cc3)N2C1=O", "CLASS_NAME": "false"}
{"COMPOUND": "C=CCC(OC(C)=O)[C@@H]1[C@@H](N(Cc2ccc(-c3cccc(C(F)(F)F)c3)o2)C(=O)c2ccc(-c3ccccc3)cc2)c2cc(OCCCO)ccc2N1C(=O)c1ccc2ccccc2n1 (stereo not given in full)", "CLASS_NAME": "false"}
{"COMPOUND": "CCCCN1CC=CC23O[C@@H]4/C=C\\CCC(C)OC(=O)C4[C@H]2C(=O)N(C(CO)C(C)C)[C@@H]3C1=O (stereo not given in full)", "CLASS_NAME": "true"}
{"COMPOUND": "CN(C)c1ccc(C(O)C2C=CC3C(=O)N(c4ccccc4)C(=O)C3N2Nc2ccc([N+](=O)[O-])cc2)cc1 (stereo not given)", "CLASS_NAME": "true"}
{"COMPOUND": "COc1cccc(/C=C/C=O)c1", "CLASS_NAME": "false"}
{"COMPOUND": "CCOC(=O)C1=CC[C@@H](c2ccccc2C(F)(F)F)N(S(=O)(=O)c2ccc(C)cc2)[C@H]1c1ccc(C#N)cc1", "CLASS_NAME": "true"}
{"COMPOUND": "COCCOC(=O)N1C(=O)[C@@]2(c3cc(C#CC4=CCCCC4)ccc31)[C@H](c1ccccc1OCCO)N1[C@H](c3ccccc3)[C@H](c3ccccc3)OC(=O)[C@H]1[C@@H]2C(=O)Nc1nc2ccccc2s1", "CLASS_NAME": "true"}
{"COMPOUND": "CCOc1cc(C(O)C2C=CC3C(=O)N(c4ccccc4)C(=O)C3N2Nc2ccc(C#N)cc2)ccc1O (stereo not given)", "CLASS_NAME": "true"}
{"COMPOUND": "COC(=O)Cn1c(C(=O)N(C)C)cc2c1C[C@H]1CN(C(=O)c3ccccc3)[C@@](Cc3ccc(F)cc3)(C(=O)OC)[C@@H]21", "CLASS_NAME": "true"}
{"COMPOUND": "COc1ccc([Si](C)(C)[C@@H]2[C@@H](CCn3cc([C@H](O)c4ccccc4)nn3)O[C@]3(C(=O)N(Cc4ccc(N5CCC5=O)cc4)c4ccccc43)[C@H]2C)cc1", "CLASS_NAME": "false"}
{"COMPOUND": "COc1ccc(CN(C2=CC[C@@]3(C(N)=O)C(=O)C(Cl)=C(Cl)C(=O)[C@@]3(C#N)C2)S(=O)(=O)c2ccc(Br)cc2)cc1", "CLASS_NAME": "true"}
{"COMPOUND": "O=C1C=C(c2ccccc2)C(=O)c2ccc([C@H]3Oc4ccccc4S(=O)(=O)N4CCC[C@@H]34)cc21", "CLASS_NAME": "false"}
{"COMPOUND": "NCCCCCNC(=O)[C@@H]1C[C@@H]2C(=O)NCC(=O)N2[C@@H]1c1cccc(OCCO)c1", "CLASS_NAME": "false"}
{"COMPOUND": "CC(C)(C)N1CC=CC23O[C@@H]4C=CCOC(=O)[C@@H]4[C@H]2C(=O)N(CCCCCCO)[C@@H]3C1=O (stereo not given in full)", "CLASS_NAME": "false"}
{"COMPOUND": "C=CCN1Cc2ccccc2[C@H]2OC(c3ccc(OCCCO)cc3)=N[C@@]2(CC=C)C1=O", "CLASS_NAME": "true"}

Entry source: PubChem BioAssay
